Values from patent US7417068B2

Record form. Attribute: Ki. Fill in for each entry.
# Study system: human EP2 receptor (Homo sapiens)
# Construct: expressed in transfected cells
# Sequence (P43116 whole entry): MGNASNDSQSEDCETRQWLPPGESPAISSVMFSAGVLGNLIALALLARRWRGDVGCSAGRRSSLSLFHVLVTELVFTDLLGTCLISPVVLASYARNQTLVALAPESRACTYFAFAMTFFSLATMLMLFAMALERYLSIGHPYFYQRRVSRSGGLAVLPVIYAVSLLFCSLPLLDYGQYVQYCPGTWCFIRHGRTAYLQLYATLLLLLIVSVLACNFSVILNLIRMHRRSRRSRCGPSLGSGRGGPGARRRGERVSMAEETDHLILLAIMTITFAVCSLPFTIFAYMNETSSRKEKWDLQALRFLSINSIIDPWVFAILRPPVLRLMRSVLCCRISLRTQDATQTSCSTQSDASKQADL
# Run description: Binding ability to human EP receptors ([3H]PGE2 displacement), EP2
# Condition summary: membranes from cells stably transfected with human EP2 receptor; 3 nM [3H]PGE2; Cheng-Prusoff from IC50; read-out: pKi EP2 (converted)
# Experimental: Membranes were prepared from cells stably transfected with human EP receptor cDNA. In brief, cells were cultured to confluency, scraped from culture flasks, and centrifuged (800 g, 8 minutes, 4° C.). […] For assay, membranes expressing human EP4, EP3, EP2 or EP1 receptors were incubated in Millipore (MHVBN45) plates containing assay buffer, radiolabelled [^3H]PGE2 and 0.1 to 10 000 nM concentrations of compounds. […] Non-specific binding was determined in the presence of 10 uM PGE2. […]

Input: If you can, please state the reported Ki value of Cc1oc(-c2ccc(OC(F)F)cc2)cc1C(=O)Nc1ccc(CC(=O)NS(=O)(=O)c2cccs2)cc1 .
Output: > 3160 nM

Input: If you can, please state the reported Ki value of O=C(O)Cc1ccc(NC(=O)c2coc(-c3ccccc3)c2)cc1 .
Output: > 3160 nM

Input: If you can, please state the reported Ki value of COc1ccc(-c2cc(C(=O)Nc3ccc(CC(=O)NS(=O)(=O)c4ccccc4)cc3)c(C(F)(F)F)o2)cc1 .
Output: > 1000 nM

Input: If you can, please state the reported Ki value of Cc1oc(-c2ccc(OC(F)F)cc2)cc1C(=O)Nc1ccc(CC(=O)NS(=O)(=O)c2ccccc2F)cc1 .
Output: > 1000 nM

Input: If you can, please state the reported Ki value of CCCS(=O)(=O)NC(=O)Cc1ccc(NC(=O)c2cc(-c3ccc(OC(F)F)cc3)oc2C)cc1 .
Output: > 10000 nM

Input: If you can, please state the reported Ki value of Cc1ccc(S(=O)(=O)NC(=O)Cc2ccc(NC(=O)c3cc(-c4ccc(OC(F)F)cc4)oc3C)cc2)nc1 .
Output: > 1000 nM

Input: If you can, please state the reported Ki value of Cc1oc(-c2ccc(OC(F)F)cc2)cc1C(=O)Nc1ccc(CC(=O)NS(=O)(=O)Cc2ccccc2)cc1 .
Output: > 1000 nM

----------
Record form. Attribute: Ki. Fill in for each entry.
# Study system: human EP4 receptor (Homo sapiens, UniProt P35408)
# Construct: expressed in transfected cells
# Sequence (P35408 whole entry): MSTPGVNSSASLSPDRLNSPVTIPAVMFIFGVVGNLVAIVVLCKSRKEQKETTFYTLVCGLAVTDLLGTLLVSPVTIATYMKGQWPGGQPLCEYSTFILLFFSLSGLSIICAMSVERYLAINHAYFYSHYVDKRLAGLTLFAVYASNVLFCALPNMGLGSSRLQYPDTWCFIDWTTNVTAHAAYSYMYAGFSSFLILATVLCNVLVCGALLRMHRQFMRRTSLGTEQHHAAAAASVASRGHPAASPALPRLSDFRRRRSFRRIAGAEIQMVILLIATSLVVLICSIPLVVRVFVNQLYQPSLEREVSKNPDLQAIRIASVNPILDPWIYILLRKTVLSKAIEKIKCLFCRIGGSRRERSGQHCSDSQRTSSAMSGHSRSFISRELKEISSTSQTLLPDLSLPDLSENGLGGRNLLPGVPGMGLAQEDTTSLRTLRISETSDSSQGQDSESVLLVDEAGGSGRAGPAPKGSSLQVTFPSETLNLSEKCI
# Run description: Binding ability to human EP receptors ([3H]PGE2 displacement), EP4
# Condition summary: membranes from cells stably transfected with human EP4 receptor; 1 nM [3H]PGE2; Cheng-Prusoff from IC50; read-out: pKi EP4 (converted)

Input: Form field - read-out: Ki; system: human EP4 receptor (Homo sapiens, UniProt P35408); submitted item: CCCS(=O)(=O)NC(=O)Cc1ccc(NC(=O)c2cc(-c3ccc(OC(F)F)cc3)oc2C)cc1 [Compound 27]
Output: < 1000 nM

Input: Form field - read-out: Ki; system: human EP4 receptor (Homo sapiens, UniProt P35408); submitted item: COc1ccc(-c2cc(C(=O)Nc3ccc(CC(=O)NS(=O)(=O)c4ccccc4)cc3)c(C)o2)cc1 [Compound 23]
Output: < 100 nM

Input: Form field - read-out: Ki; system: human EP4 receptor (Homo sapiens, UniProt P35408); submitted item: COc1ccc(-c2cc(C(=O)Nc3ccc(CC(=O)O)cc3)c(C)o2)cc1 [Compound 6]
Output: < 1000 nM

Input: Form field - read-out: Ki; system: human EP4 receptor (Homo sapiens, UniProt P35408); submitted item: Cc1oc(-c2ccccc2)cc1C(=O)Nc1ccc(CC(=O)NS(=O)(=O)c2ccccc2)cc1 [Compound 21]
Output: < 100 nM

Input: Form field - read-out: Ki; system: human EP4 receptor (Homo sapiens, UniProt P35408); submitted item: Cc1ccccc1S(=O)(=O)NC(=O)Cc1ccc(NC(=O)c2coc(-c3ccccc3)c2)cc1 [Compound 24]
Output: < 1000 nM

Input: Form field - read-out: Ki; system: human EP4 receptor (Homo sapiens, UniProt P35408); submitted item: Cc1ccccc1S(=O)(=O)NC(=O)Cc1ccc(NC(=O)c2cc(-c3ccc(OC(F)F)cc3)oc2C)cc1 [Compound 26]
Output: < 100 nM

Input: Form field - read-out: Ki; system: human EP4 receptor (Homo sapiens, UniProt P35408); submitted item: Cc1noc(C)c1S(=O)(=O)NC(=O)Cc1ccc(NC(=O)c2cc(-c3ccc(OC(F)F)cc3)oc2C)cc1 [Compound 28]
Output: < 1000 nM

Input: Form field - read-out: Ki; system: human EP4 receptor (Homo sapiens, UniProt P35408); submitted item: Cc1ccc(S(=O)(=O)NC(=O)Cc2ccc(NC(=O)c3cc(-c4ccc(OC(F)F)cc4)oc3C)cc2)nc1 [Compound 30]
Output: < 100 nM

Input: Form field - read-out: Ki; system: human EP4 receptor (Homo sapiens, UniProt P35408); submitted item: COc1ccc(-c2cc(C(=O)Nc3ccc(CC(=O)O)cc3)c(C(F)(F)F)o2)cc1 [Compound 4]
Output: < 10000 nM

Input: Form field - read-out: Ki; system: human EP4 receptor (Homo sapiens, UniProt P35408); submitted item: Cc1oc(-c2ccc(OC(F)F)cc2)cc1C(=O)Nc1ccc(CC(=O)NS(=O)(=O)c2ccccc2F)cc1 [Compound 36]
Output: < 100 nM

Input: Form field - read-out: Ki; system: human EP4 receptor (Homo sapiens, UniProt P35408); submitted item: Cc1oc(-c2ccc(OC(F)F)cc2)cc1C(=O)Nc1ccc(CC(=O)NS(=O)(=O)c2cccs2)cc1 [Compound 29]
Output: < 100 nM

Input: Form field - read-out: Ki; system: human EP4 receptor (Homo sapiens, UniProt P35408); submitted item: Cc1oc(-c2ccc(OC(F)F)cc2)cc1C(=O)Nc1ccc(CC(=O)NS(=O)(=O)Cc2ccccc2)cc1 [Compound 31]
Output: < 100 nM

Input: Form field - read-out: Ki; system: human EP4 receptor (Homo sapiens, UniProt P35408); submitted item: Cc1oc(-c2ccc(OC(F)F)cc2)cc1C(=O)Nc1ccc(CC(=O)NS(=O)(=O)c2ccc(O)cc2)cc1 [Compound 35]
Output: < 100 nM

Input: Form field - read-out: Ki; system: human EP4 receptor (Homo sapiens, UniProt P35408); submitted item: Cc1oc(-c2ccc(OC(F)F)cc2)cc1C(=O)Nc1ccc(CC(=O)NS(=O)(=O)c2ccccc2C(F)(F)F)cc1 [Compound 32]
Output: < 100 nM

Input: Form field - read-out: Ki; system: human EP4 receptor (Homo sapiens, UniProt P35408); submitted item: O=C(O)Cc1ccc(NC(=O)c2coc(-c3ccc(OC(F)F)cc3)c2)cc1 [Compound 13]
Output: < 1000 nM

Input: Form field - read-out: Ki; system: human EP4 receptor (Homo sapiens, UniProt P35408); submitted item: Cc1oc(-c2ccc(OC(F)F)cc2)cc1C(=O)Nc1ccc(CC(=O)NS(=O)(=O)c2ccccc2)cc1 [Compound 25]
Output: < 100 nM

Input: Form field - read-out: Ki; system: human EP4 receptor (Homo sapiens, UniProt P35408); submitted item: Cc1oc(-c2ccc(OC(F)F)cc2)cc1C(=O)Nc1ccc(CC(=O)O)cc1 [Compound 18]
Output: < 1000 nM

Input: Form field - read-out: Ki; system: human EP4 receptor (Homo sapiens, UniProt P35408); submitted item: O=C(O)Cc1ccc(NC(=O)c2coc(-c3ccccc3)c2)cc1 [Compound 10]
Output: < 1000 nM

Input: Form field - read-out: Ki; system: human EP4 receptor (Homo sapiens, UniProt P35408); submitted item: COc1ccc(-c2cc(C(=O)Nc3ccc(CC(=O)NS(=O)(=O)c4ccccc4)cc3)c(C(F)(F)F)o2)cc1 [Compound 22]
Output: < 1000 nM

Input: Form field - read-out: Ki; system: human EP4 receptor (Homo sapiens, UniProt P35408); submitted item: Cc1cc(C(=O)NCc2ccc(C(=O)O)cc2)c(-c2ccccc2)o1 [Compound 20]
Output: < 10000 nM
